- subjectOfTest: T1, human common cytokine receptor γ-chain (IL-2Rγ) (human, UniProt P31785 23-262, limits assumed)
- T1 construct: Recombinant human IL-2Rγ protein, coated (ELISA) or amine-coupled to a CM5 chip (SPR); also called hu IL-2R; CD132
- T1 sequence: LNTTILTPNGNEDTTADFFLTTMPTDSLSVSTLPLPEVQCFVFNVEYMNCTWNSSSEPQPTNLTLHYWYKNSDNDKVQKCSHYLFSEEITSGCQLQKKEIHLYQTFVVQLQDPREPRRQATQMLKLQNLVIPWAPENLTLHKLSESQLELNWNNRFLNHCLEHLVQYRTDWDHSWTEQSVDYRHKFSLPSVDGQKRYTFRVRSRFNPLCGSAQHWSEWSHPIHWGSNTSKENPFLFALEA
- procedureDetails: P.E. binding ELISA
Parameter threshold = 0.7 OD450 nm. Response is class 1 when PE binding ELISA OD meets or exceeds it, else class 0.

# count of solved cases: 3
Q: Hi, just wondering whether FJ1427_P035MP07B11 (VHH, tested as periplasmic extract; also called Clone nr) VHH: QVQLVESGGGLVQAGGSLRLSCAASGRALSRLAMGWFRQAPGKEREFVVASSWGDDTFYADSVEGRFTFSRDNAKSTVYLQMNSLQPGDTAVYYCAAAPTSFATTAYSSSNSYAYWGQGTQVTVPS shows PE binding ELISA OD of 0.7 OD450 nm or higher.
Ans: class 1

Q: Given the entry FJ1427_P035MP07C06 (VHH, tested as periplasmic extract; also called Clone nr) VHH: QVQLVESGGGLVQAGGSLRLSCAASGRTLSRYAMGWFRQAPGKEREFVTANSWGGDTYYADSVQGRFTFSRDNAENTVYLQMNSLQPEDTAVYYCAAAPTSFATTAYSSSNSYAYWGQGTQVTVSS , answer whether its PE binding ELISA OD meets or surpasses 0.7 OD450 nm.
Ans: class 0

Q: Textbook exercise: given the entry FJ1427_P035MP07D04 (VHH, tested as periplasmic extract; also called Clone nr) VHH: EVQLVESGGGLVQAGGSLRLSCAASGRTLSRYAMGWFRQGPGKEREFVAADSWGGDTYYDDSVEGRFTFSRDITKNAVYLQMNSLQPEDTAVYYCAAAPTSFATTAYSSSNSYAYWGQGTQVTVSS , state whether its PE binding ELISA OD is greater than or equal to 0.7 OD450 nm.
Ans: class 1

Others:
Q: Determine whether measured PE binding ELISA OD meets or exceeds 0.7 OD450 nm for FJ1427_P035MP07F06 (VHH, tested as periplasmic extract; also called Clone nr) VHH: QVQLVESGGGLVQAGGSLRLSCAASGRALSRLAMGWFRQAPGKEREFVVASSWGDDTFYADSVKGRFTFSRDNAKNTVYLQMNSLQPGDTAVYYCAAAPTSFATTAYSSSNSYAYWGQGTQVTVSS
Ans: class 1

Q: Check the entry FJ1427_P035MP07F03 (VHH, tested as periplasmic extract; also called Clone nr) VHH: QVQLVESGGGLVQTGGSLRLSCAASGRTLSRYAMGWFRQAPGKEREFVTANSWGGDTYYADSVQGRFTFSRDNAKNTVYLQMNSLQPEDTAVYYCAAAPTSFATTAYSSSNSYAYWGQGTQVTVSS : does PE binding ELISA OD equal or exceed 0.7 OD450 nm?
Ans: class 0

Q: Hello, I need to know if FJ1427_P035MP07E06 (VHH, tested as periplasmic extract; also called Clone nr) VHH: QVQLVESGGGLVQAGGSLRLSCAASGRTLSRYAMGWFRQAPGKEREFVTANSWGGDTYYADSVQGRFTFSRDNAKNTVYLQMNSLQPEDTAVYYCAAAPTSFATTAYSSSNSYAYWGQGTQVTVSS has measured PE binding ELISA OD not below 0.7 OD450 nm. Thanks!
Ans: class 0

Q: Confirm if PE binding ELISA OD reported for the binder FJ1427_P035MP07B01 (VHH, tested as periplasmic extract; also called Clone nr) VHH: QVQLVESGGGLVQAGGSLRLSCAASGRTLSRYAMGWFRQAPGKEREFVTANSWGGDTYYADSVQGRFTFTRDNAKNTVYLQMNSLQPEDTAVYYCAAAPTSFATTAYSSSNSYAYWGQGTQVTVSS is 0.7 OD450 nm or above.
Ans: class 0

Q: Test whether the binder FJ1427_P035MP07F07 (VHH, tested as periplasmic extract; also called Clone nr; 630) VHH: EVQLVESGGGLVQAGGSLRLSCAASGRTLSRYAMGWFRQAPGKEREFVTANSWGGDTYYADSVQGRFTFSRDNAKNTVYLQMNSLQPEDTAVYYCAAAPTSFATTAYSSSNSYAYWGQGTQVTVSS records PE binding ELISA OD of 0.7 OD450 nm or higher.
Ans: class 0
